# System: NCl-H69
# ASSAY_OVERVIEW: MTT cell viability, NCl-H69 cells
# Assay type: cell-based, human
# EXPERIMENTAL_CONDITIONS: Homo sapiens, NCl-H69 lung small cell carcinoma, p53 Mutant
METRIC: EC50 (µM)
Write the answer as a number in µM, unit excluded.

I have this molecule here, CC(C)(C)C[C@@H]1N[C@@H](C(=O)N[C@H]2CC[C@H](O)CC2)[C@H](c2cccc(Cl)c2F)[C@]12C(=O)Nc1cc(Cl)ccc12 , and I need its recorded EC50.
31.7

###

# System: SW620
# ASSAY_OVERVIEW: MTT cell viability, SW620 cells
# Format: cell-based, human
# EXPERIMENTAL_CONDITIONS: SW620 colon adenocarcinoma, p53 Mutant
Bridge positions count the residues as written; N and C are the ends. Square brackets hold non-standard residues; d marks the D form. Peptide text beside a SMILES is read from it.
METRIC: EC50

I would be grateful if you could share the reported EC50 for N=C(N)NCCC[C@@H]1NC(=O)[C@@H](CCCNC(=N)N)NC(=O)[C@H](CCCCN)NC(=O)[C@@H](N)CCCCNC(=O)CC[C@@H](C(=O)O)NC(=O)[C@@H](CCCNC(=N)N)NC(=O)[C@H](CCCNC(=N)N)NC(=O)[C@@H](CCCCN)NC(=O)[C@H](CCCCN)NC(=O)[C@@H](CCCNC(=N)N)NC(=O)CNC(=O)[C@@H](CCCNC(=N)N)NC1=O [cTAT] (H-KK[dR]R[dR]G[dR]K[dK]R[dR]E-OH; lactam 1-12; N-terminus and C-terminus assumed) .
> 100 µM

Could you tell me which EC50 is on file for COc1ccc(C2=N[C@@H](c3ccc(Cl)cc3)[C@@H](c3ccc(Cl)cc3)N2C(=O)N2CCNC(=O)C2)c(OC(C)C)c1 ?
> 100 µM
